Tested on: 931267-113-T-J1-PDC KRAS spheroid with HUVEC/MSC, viability;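 also: compound exposure lasted 7 days before the readout; 100% = DMSO vehicle control viability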
testDescription: Anticancer human tumor 931267-113-T-J1-PDC patient-derived colon adenocarcinoma cell line growth inhibition [KRAS2]
testConditions: second compound 1 µM; first compound 0.1 µM; stronger effect = lower value
experimentalEndpoint: viability, T/C (%)
Respond with the bare value in %.

compound	targetOrTestSystem	viability, T/C [%]
O=C(c1cc(Cc2n[nH]c(=O)c3ccccc23)ccc1F)N1CCN(C(=O)C2CC2)CC1 + COc1cc2nc(C)nc(NC(C)c3cc(N)cc(C(F)(F)F)c3)c2cc1OC1CCOC1	931267-113-T-J1-PDC KRAS spheroid with HUVEC/MSC, viability	92.1
COc1cc(Nc2ncc3c(n2)-c2ccc(Cl)cc2C(c2c(F)cccc2OC)=NC3)ccc1C(=O)O + COc1cc2nc(C)nc(NC(C)c3cc(N)cc(C(F)(F)F)c3)c2cc1OC1CCOC1	931267-113-T-J1-PDC KRAS spheroid with HUVEC/MSC, viability	79.8

Proceeding to the next compound to report its viability, T/C.
Summary: CC1COCCN1c1cc(-c2ccnn2C)c2ccnc(-c3ccn[nH]3)c2n1 (stereo not drawn) + CNCc1ccccc1-c1csc(C(C)Nc2nc(C)nc3cc(OC)c(OC)cc23)c1 , 931267-113-T-J1-PDC KRAS spheroid with HUVEC/MSC, viability, viability, T/C = 19.8
